SYSTEM TESTED: PAD1 (Homo sapiens, UniProt Q9ULC6)
Construct: made in house
Sequence (Q9ULC6 whole entry): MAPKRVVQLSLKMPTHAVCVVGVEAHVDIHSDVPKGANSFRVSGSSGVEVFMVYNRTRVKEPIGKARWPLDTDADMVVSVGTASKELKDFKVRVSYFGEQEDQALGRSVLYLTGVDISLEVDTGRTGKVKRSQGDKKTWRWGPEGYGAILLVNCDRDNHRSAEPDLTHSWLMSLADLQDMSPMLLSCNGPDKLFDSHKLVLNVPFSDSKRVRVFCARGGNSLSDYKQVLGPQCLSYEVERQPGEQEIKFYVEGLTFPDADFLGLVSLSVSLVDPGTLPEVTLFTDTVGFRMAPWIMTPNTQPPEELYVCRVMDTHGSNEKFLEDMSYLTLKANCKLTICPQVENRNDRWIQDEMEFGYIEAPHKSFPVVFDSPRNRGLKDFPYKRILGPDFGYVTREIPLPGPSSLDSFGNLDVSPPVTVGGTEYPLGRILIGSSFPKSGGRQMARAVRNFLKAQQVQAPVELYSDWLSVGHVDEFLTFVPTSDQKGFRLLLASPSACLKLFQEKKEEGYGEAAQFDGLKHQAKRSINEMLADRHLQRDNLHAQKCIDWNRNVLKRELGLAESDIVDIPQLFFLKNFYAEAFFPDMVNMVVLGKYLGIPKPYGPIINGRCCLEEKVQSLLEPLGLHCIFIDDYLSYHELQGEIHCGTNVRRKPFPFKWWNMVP
ASSAY NOTES: Inactivation kinetics, PAD1
Assay type: biochemical
MEASUREMENT CONDITIONS: kinact/KI relative to least inhibited isozyme (1.0)
Please respond with reported Fold PAD1 Selectivity for every item in the list.
Returns: string containing the number followed by the unit.

COMPOUND	Fold PAD1 Selectivity
COc1cccc2c1nc([C@H](CCCNC(=N)CF)NC(=O)c1cccc3c1C(=O)NC3)n2C [Compound 7k]	29 fold
CCn1c([C@H](CCCNC(=N)CF)NC(=O)c2ccccc2C(=O)O)nc2ccccc21 [Compound 6e]	39 fold
N=C(CF)NCCC[C@H](NC(=O)c1ccc(-c2ccccc2)cc1)c1nc2ccccc2[nH]1 [Compound 5e]	1.0 fold

Parameter requested: Fold PAD1 Selectivity. Apply to each item below.
1. CCN1Cc2cccc(C(=O)N[C@@H](CCCNC(=N)CF)c3nc4ccccc4n3CC)c2C1=O [Compound 8e]
2. CCOc1cccc2c1nc([C@H](CCCNC(=N)CCl)NC(=O)c1cccc3c1C(=O)N(CC)C3)n2C [Compound 8n]

A.
1: 19 fold; 2: 12 fold

Record Fold PAD1 Selectivity per entry; entries follow.
1. CCOc1cccc2c1nc([C@H](CCCNC(=N)CF)NC(=O)c1cccc3c1C(=O)N(CC)C3)n2C [Compound 8m]
2. Cn1c([C@H](CCCNC(=N)CF)NC(=O)c2ccc(-c3ccccc3)cc2)nc2ccccc21 [Compound 5g]
3. CCN1Cc2cccc(C(=O)N[C@@H](CCCNC(=N)CF)c3nc4c(OC)cccc4n3C)c2C1=O [Compound 8k]
4. Cn1c([C@H](CCCNC(=N)CCl)NC(=O)c2ccc(-c3ccccc3)cc2)nc2ccccc21 [Compound 5h]
5. CCN1Cc2cccc(C(=O)N[C@@H](CCCNC(=N)CF)c3nc4c(OC)cccc4n3CC)c2C1=O [Compound 8u]
6. COc1ccc2c(c1)nc([C@H](CCCNC(=N)CCl)NC(=O)c1cccc3c1C(=O)NC3)n2C [Compound 7p]

A.
8.9 fold
2.8 fold
16 fold
2.8 fold
28 fold
25 fold

For each listed entry, give its Fold PAD1 Selectivity.
1. CCn1c([C@H](CCCNC(=N)CF)NC(=O)c2ccc(-c3ccccc3)cc2)nc2ccccc21 [Compound 5i]
2. N=C(CF)NCCC[C@H](NC(=O)c1ccc2ccccc2c1)c1nc2ccccc2[nH]1 [Compound 5c]
3. COc1cccc2c1nc([C@H](CCCNC(=N)CF)NC(=O)c1cccc3c1C(=O)N(C)C3)n2C [8a′]
4. Cn1c([C@H](CCCNC(=N)CCl)NC(=O)c2ccccc2C(=O)O)nc2ccccc21 [Compound 6d]
5. CCn1c([C@H](CCCNC(=N)CF)NC(=O)c2cccc3c2C(=O)NC3)nc2ccccc21 [Compound 7e]

A.
1. 25 fold
2. 1.9 fold
3. 30 fold
4. 4.3 fold
5. 37 fold
